STUDY TARGET: CDK2 (Homo sapiens, UniProt P24941)
Construct: host or cells: HEK293-CDK2-Hibit
TEST NAME: HiBit Assay Protocol for CDK2 (HIBIT protein quantification, degradation)
Format: cell-based
EXPERIMENTAL CONDITIONS: HEK293-CDK2-Hibit cells, compound treatment for 6 hours
Description: HiBit Assay Protocol for CDK2 • 1. The culture medium for HEK293-CDK2-Hibit cells was prepared using DMEM with 10% FBS. • 2. Cells were cultivated in T-75 flasks in a cell culture incubator set at 37° C., 5% CO2, 95% relative humidity. […] Cells were harvested from flask into cell culture medium and then the cell number was counted. […] • 1. […] 20 μL of HiBit reagent was added into each well and the plates were spinned at room temperature at 1,000 RPM for 1 minute to be detected. […]
CDK2 HIBIT Protein Quantification Maximum of 40% or higher: Satisfied. Under 40%: Not satisfied.

{"columns": ["COMPOUND", "LABEL VALUE"],
 "data": [
  ["O=C1CCC(N2Cc3cc(N4CCC(N5CC(Oc6cccc(S(=O)(=O)c7ccc(Nc8ncc9c(n8)N([C@@H]8CCC[C@@H](O)C8)C(=O)C98CC8)cc7)c6)C5)CC4)ccc3C2=O)C(=O)N1 (some centres unmarked)", "Satisfied"],
  ["CC1CCCC1N1C(=O)C2(CC2)c2cnc(NC3CCN(S(=O)(=O)N4CC5CN(C(=O)CCCCc6cccc7c6n(C)c(=O)n7C6CCC(=O)NC6=O)CC54)CC3)nc21 (centres unmarked)", "Not satisfied"],
  ["Cn1c(=O)n(C2CCC(=O)NC2=O)c2ccc(C3CCN(Cc4cccc(S(=O)(=O)N5CCC(Nc6ncc7c(n6)N([C@@H]6CCC[C@@H](O)C6)C(=O)C76CC6)CC5)c4)CC3)cc21 (some centres unmarked)", "Satisfied"],
  ["CC1CCCC1N1C(=O)C2(CC2)c2cnc(NC3CCN(S(=O)(=O)N4CC5(CCCN(C(=O)CCCc6cccc7c6n(C)c(=O)n7C6CCC(=O)NC6=O)C5)C4)CC3)nc21 (centres unmarked)", "Satisfied"],
  ["CC1CCCC1N1C(=O)C2(CC2)c2cnc(NC3CCN(S(=O)(=O)N4CC5C4CCN5C(=O)CCCc4ccc5c(c4)n(C)c(=O)n5C4CCC(=O)NC4=O)CC3)nc21 (centres unmarked)", "Not satisfied"]
]}

###

STUDY TARGET: CCNE1 (Homo sapiens)
Construct: host or cells: HEK293-CCNE1-Hibit
Sequence (P24864 whole entry): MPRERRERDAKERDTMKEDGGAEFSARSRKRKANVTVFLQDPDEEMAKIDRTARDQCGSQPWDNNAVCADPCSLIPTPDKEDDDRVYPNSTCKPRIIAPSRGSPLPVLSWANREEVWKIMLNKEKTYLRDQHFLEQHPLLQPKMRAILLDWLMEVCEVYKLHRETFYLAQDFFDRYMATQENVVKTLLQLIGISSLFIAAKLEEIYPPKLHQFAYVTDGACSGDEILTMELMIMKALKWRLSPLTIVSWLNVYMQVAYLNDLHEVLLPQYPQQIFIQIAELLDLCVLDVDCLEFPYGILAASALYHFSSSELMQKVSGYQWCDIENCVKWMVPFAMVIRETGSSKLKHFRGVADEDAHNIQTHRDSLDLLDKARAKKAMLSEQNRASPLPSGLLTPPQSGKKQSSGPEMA
TEST NAME: HiBit Assay Protocol for CCNE1 (HIBIT protein quantification, degradation)
Assay type: cell-based
EXPERIMENTAL CONDITIONS: HEK293-CCNE1-Hibit cells, compound treatment for 6 hours
METRIC NAME: CCNE1 HIBIT Protein Quantification Maximum (%)

{"columns": ["COMPOUND", "MEASURED NUMBER"],
 "data": [
  ["CC1CCCC1N1C(=O)C2(CC2)c2cnc(NC3CCN(S(=O)(=O)N4CC5(CCN(C(=O)CCCCCCCCCc6cccc7c6n(C)c(=O)n7C6CCC(=O)NC6=O)CC5)C4)CC3)nc21 (stereo not shown)", 40],
  ["C[C@H](c1cccc(S(=O)(=O)N2CC[C@H](Nc3ncc4c(n3)N([C@@H]3CCC[C@@H](O)C3)C(=O)C43CC3)[C@H](F)C2)c1)N1CCN(c2ccc3c(N4CCC(=O)NC4=O)nn(C)c3c2)CC1", 36],
  ["Cn1nc(N2CCC(=O)NC2=O)c2ccc(C3CCN(Cc4cc(F)cc(S(=O)(=O)N5CCC(Nc6ncc7c(n6)N([C@@H]6CCC[C@@H](O)C6)C(=O)C76CC6)CC5)c4)CC3)cc21", 46],
  ["CC1CCCC1N1C(=O)C2(CC2)c2cnc(NC3CCN(S(=O)(=O)N4CCCN(C(=O)CCCc5cccc6c5n(C)c(=O)n6C5CCC(=O)NC5=O)CC4)CC3)nc21 (stereo not shown)", 9],
  ["CC1CCCC1N1C(=O)C2(CC2)c2cnc(NC3CCN(S(=O)(=O)N4CC5(CN(CCCCOc6ccc7c(c6)n(C)c(=O)n7C6CCC(=O)NC6=O)C5)C4)CC3)nc21 (stereo not shown)", 1],
  ["CC1CCCC1N1C(=O)C2(CC2)c2cnc(NC3CCN(S(=O)(=O)N4CCC5(CCN(C(=O)CCCCCCCc6cccc7c6n(C)c(=O)n7C6CCC(=O)NC6=O)C5)C4)CC3)nc21 (stereo not shown)", 18],
  ["CC1CCCC1N1C(=O)C2(CC2)c2cnc(NC3CCN(S(=O)(=O)N4CCCC45CCN(C(=O)CCCCCc4cccc6c4n(C)c(=O)n6C4CCC(=O)NC4=O)C5)CC3)nc21 (stereo not shown)", 21],
  ["CC1CCCC1N1C(=O)C2(CC2)c2cnc(NC3CCN(S(=O)(=O)N4CC5(CCCCN5C(=O)CCCCc5ccc6c(c5)n(C)c(=O)n6C5CCC(=O)NC5=O)C4)CC3)nc21 (stereo not shown)", 3],
  ["CC1CCCC1N1C(=O)C2(CC2)c2cnc(NC3CCN(S(=O)(=O)N4CC5CN(C(=O)CCCCCc6ccc7c(c6)n(C)c(=O)n7C6CCC(=O)NC6=O)CC54)CC3)nc21 (stereo not shown)", 16],
  ["CC(c1cccc(S(=O)(=O)N2CC[C@H](Nc3ncc4c(n3)N([C@@H]3CCC[C@@H](O)C3)C(=O)C43CC3)[C@H](F)C2)c1)N1CCN(c2ccc3c(N4CCC(=O)NC4=O)nn(C)c3c2)C[C@H]1C (stereo partly shown)", 41],
  ["O=C1CCC(N2Cc3cc(N4CCN(CC5CCN(c6cccc(S(=O)(=O)N7CCC(Nc8ncc9c(n8)N([C@@H]8CCC[C@@H](O)C8)C(=O)C98CC8)CC7)c6)CC5)CC4)ccc3C2=O)C(=O)N1 (stereo partly shown)", 25],
  ["CC1CCCC1N1C(=O)C2(CC2)c2cnc(NC3CCN(S(=O)(=O)N4CC5(CCN(C(=O)CCCCc6ccc7c(c6)n(C)c(=O)n7C6CCC(=O)NC6=O)CC5)C4)CC3)nc21 (stereo not shown)", 22],
  ["Cn1nc(N2CCC(=O)NC2=O)c2ccc(C3CCN(Cc4cc(S(=O)(=O)N5CCC(Nc6ncc7c(n6)N([C@@H]6CCC[C@@H](O)C6)C(=O)C76CC6)CC5)ccn4)CC3)cc21", 34],
  ["CC1CCCC1N1C(=O)C2(CC2)c2cnc(NC3CCN(S(=O)(=O)C4CCN(C(=O)CCCCCCCCCc5cccc6c5n(C)c(=O)n6C5CCC(=O)NC5=O)C4)CC3)nc21 (stereo not shown)", 46],
  ["CC1CCCC1N1C(=O)C2(CC2)c2cnc(NC3CCN(S(=O)(=O)N4CCN(C(=O)CCCCCc5cccc6c5n(C)c(=O)n6C5CCC(=O)NC5=O)CC4)CC3)nc21 (stereo not shown)", 46],
  ["Cn1c(=O)n(C2CCC(=O)NC2=O)c2cccc(C3CCN(Cc4cccc(S(=O)(=O)N5CCC(Nc6ncc7c(n6)N([C@@H]6CCC[C@@H](O)C6)C(=O)C76CC6)CC5)c4)CC3)c21 (stereo partly shown)", 44],
  ["CC1CCCC1N1C(=O)C2(CC2)c2cnc(NC3CCN(S(=O)(=O)N4CCC5(CCN(C(=O)CCCCCCCCCc6ccc7c(c6)n(C)c(=O)n7C6CCC(=O)NC6=O)C5)C4)CC3)nc21 (stereo not shown)", 25],
  ["C[C@@H](c1cccc(S(=O)(=O)N2CCC(Nc3ncc4c(n3)N([C@@H]3CCC[C@@H](O)C3)C(=O)C43CC3)CC2)c1)N1CCC(c2ccc3c(N4CCC(=O)NC4=O)nn(C)c3c2)CC1 (single isomer, unassigned)", 53],
  ["CC1CCCC1N1C(=O)C2(CC2)c2cnc(NC3CCN(S(=O)(=O)N4CC(N(C)C(=O)CCCCc5cccc6c5n(C)c(=O)n6C5CCC(=O)NC5=O)C4)CC3)nc21 (stereo not shown)", 25]
]}
